Parameter hERG current change (%, negative = inhibition) at 10uM: see the listing below.
biological target: human ether-à-go-go-related gene (hERG) potassium channel (human, UniProt Q12809); assay: primary screen, population patch clamp on CHO cells stably expressing hERG; higher = less effect of the substance
Sequence (Q12809 whole entry, looked up): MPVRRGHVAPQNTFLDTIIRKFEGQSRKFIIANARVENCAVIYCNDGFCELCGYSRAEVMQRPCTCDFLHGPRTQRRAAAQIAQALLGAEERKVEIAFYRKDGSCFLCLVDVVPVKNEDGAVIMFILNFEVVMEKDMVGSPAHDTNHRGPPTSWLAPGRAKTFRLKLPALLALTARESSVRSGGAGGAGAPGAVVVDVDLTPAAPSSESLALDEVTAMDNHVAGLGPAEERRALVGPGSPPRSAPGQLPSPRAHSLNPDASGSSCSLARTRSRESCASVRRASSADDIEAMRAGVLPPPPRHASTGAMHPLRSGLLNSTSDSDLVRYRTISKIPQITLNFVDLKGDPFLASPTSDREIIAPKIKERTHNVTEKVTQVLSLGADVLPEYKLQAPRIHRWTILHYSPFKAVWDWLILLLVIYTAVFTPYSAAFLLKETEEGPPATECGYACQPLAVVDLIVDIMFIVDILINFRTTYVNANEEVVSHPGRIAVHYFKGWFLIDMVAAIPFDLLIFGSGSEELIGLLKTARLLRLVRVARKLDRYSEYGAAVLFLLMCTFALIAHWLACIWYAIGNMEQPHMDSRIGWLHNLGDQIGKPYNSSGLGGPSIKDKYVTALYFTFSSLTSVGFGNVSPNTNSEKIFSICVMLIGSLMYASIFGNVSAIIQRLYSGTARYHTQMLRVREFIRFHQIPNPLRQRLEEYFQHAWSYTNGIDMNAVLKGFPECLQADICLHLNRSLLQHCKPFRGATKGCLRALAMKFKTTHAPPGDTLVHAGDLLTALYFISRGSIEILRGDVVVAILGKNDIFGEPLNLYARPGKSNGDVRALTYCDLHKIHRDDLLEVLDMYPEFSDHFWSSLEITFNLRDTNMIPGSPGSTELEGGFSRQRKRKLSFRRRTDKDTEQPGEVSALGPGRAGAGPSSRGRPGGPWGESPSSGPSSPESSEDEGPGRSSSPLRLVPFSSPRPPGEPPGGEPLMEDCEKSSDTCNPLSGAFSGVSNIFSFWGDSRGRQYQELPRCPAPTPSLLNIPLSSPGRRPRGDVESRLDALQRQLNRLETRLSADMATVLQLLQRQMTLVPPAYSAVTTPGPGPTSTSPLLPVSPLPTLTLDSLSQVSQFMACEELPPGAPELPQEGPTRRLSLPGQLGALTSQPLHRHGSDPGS
About 14,000 (4.5%) of roughly 310,000 compounds showed an effect of 50% or more. The effect is printed as a negative number. This is one part of a sample in which strong results are shown more often than they occur.
The answer is to be given in %; state only the numeric part.

Look over these answered cases.
Compound	Unit abbreviation	Numeric readout
COc1ccccc1CNC(=O)CCc1cn(C)c2ccccc12	%	-2.68
CCN(CC)CCCN(C(=O)Cn1nnc(-c2ccc(OC)c(OC)c2)n1)C(C(=O)NC(C)(C)C)c1ccc(F)cc1 (stereo not drawn)	%	-74.5
Cc1cncn1CCc1nc2c3ccccc3nc(SCC(=O)Nc3cccc(Cl)c3)n2n1	%	-78.4
OCCNC(=S)Nc1ccc2c(c1)OCCO2	%	9.32
COC(=O)Cc1ccc(NC(=O)c2ccc3c(c2)C(=O)N(Cc2ccco2)C3=O)cc1	%	-2.43

Switching to the query record.
Which hERG current change (%, negative = inhibition) at 10uM is reported for this compound? "O=c1nc2ccc(Cl)cn2c2ccc(S(=O)(=O)N3CCCCC3)cc12"
-0.392

====

hERG current change (%, negative = inhibition) at 10uM reference
molecular target: human ether-à-go-go-related gene (hERG) potassium channel (human, UniProt Q12809); test: primary screen, population patch clamp on CHO cells stably expressing hERG; higher = less effect of the substance;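 note: peak tail current of the secondary pulse compared with the same well before compound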
The whole screen tested about 310,000 compounds, of which about 14,000 (4.5%) showed an effect of 50% or more. Effects have a minus sign here. Shown is part of a subset that was picked to be rich in strong results.
The reply should be a number in %, with the unit left off.

Recorded results for 2 compounds are shown here.
Line notation	Study system	Unit abbreviation	Numeric readout
COCCn1c(C)cc(C(=O)CSc2nnc(C3CC3)n2C2CC2)c1C	human ether-à-go-go-related gene (hERG) potassium channel (human, UniProt Q12809)	%	5.4
O=C(NC(Nc1nc2ccc([N+](=O)[O-])cc2s1)(C(F)(F)F)C(F)(F)F)c1ccccc1	human ether-à-go-go-related gene (hERG) potassium channel (human, UniProt Q12809)	%	-6.48

Given the entry "CCOc1ccc(Nc2nc(N)nc(CN(C)C3CCCCC3)n2)cc1" , report its measured hERG current change (%, negative = inhibition) at 10uM.
-71.5

====

biological target: human ether-à-go-go-related gene (hERG) potassium channel (human, UniProt Q12809); experiment: primary screen, population patch clamp on CHO cells stably expressing hERG; higher = less effect of the substance;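 note: peak tail current of the secondary pulse compared with the same well before compound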
Screen size: about 310,000 compounds; about 14,000 (4.5%) showed an effect of 50% or more. Effects have a minus sign here. The full list was thinned out, with strong results kept by preference.
Value kind: hERG current change (%, negative = inhibition) at 10uM (%)
Respond numerically; units are % and should not be typed.

Compound	Study system	Numeric readout
CC(C)Oc1ccc(C(CC(=O)N(C)CCC#N)c2ccc(F)cc2)cc1 (stereo not shown)	human ether-à-go-go-related gene (hERG) potassium channel (human, UniProt Q12809)	-59.2
CCNCCNc1ccc(Cl)cc1[N+](=O)[O-].Cl	human ether-à-go-go-related gene (hERG) potassium channel (human, UniProt Q12809)	-20.3
Cc1ccc(OCC(O)Cn2c(N3CCOCC3)nc3c2c(=O)[nH]c(=O)n3C)cc1 (stereo not shown)	human ether-à-go-go-related gene (hERG) potassium channel (human, UniProt Q12809)	-16.1
C=CCNC(=S)N1CCC(C(=O)c2ccc(F)cc2)CC1	human ether-à-go-go-related gene (hERG) potassium channel (human, UniProt Q12809)	-44.4
C=CCC1Cc2c(Br)cccc2C(CC=C)N1 (stereo not shown)	human ether-à-go-go-related gene (hERG) potassium channel (human, UniProt Q12809)	-7.3

For the compound shown here, "Cc1cc(Nc2ccccc2)c2c([N+](=O)[O-])ccc(C)c2n1" , give the reported hERG current change (%, negative = inhibition) at 10uM.
-24.7

Bench note: what hERG current change (%, negative = inhibition) at 10uM did CN(C)CCCNC(=O)CC(c1ccc(F)cc1)c1ccco1 (stereo not shown) show?
-37.3

Sample "Cc1ccc(C(=O)COC(=O)CNC(=O)c2ccc(Br)o2)cc1[N+](=O)[O-]" — what was its hERG current change (%, negative = inhibition) at 10uM?
4.86

Given the entry "Cc1cc(Nc2ccc(Cl)cc2)n2nnnc2n1" , report its measured hERG current change (%, negative = inhibition) at 10uM.
7.83

I'd like to know its hERG current change (%, negative = inhibition) at 10uM. The compound in question is "Cc1nc2ccc(NC(=O)CS(=O)(=O)c3ccc(F)cc3)cc2s1"
-7.44

Query: hERG current change (%, negative = inhibition) at 10uM; subject: "CCc1ccc(C(=O)COC(=O)CNC(=O)COc2ccccc2)cc1"
-57.4

hERG current change (%, negative = inhibition) at 10uM for CCCC1(c2ccccc2)NC(=O)N(CC(=O)c2[nH]c(C)c(C(=O)OCC)c2C)C1=O (stereo not shown) ?
12.5

What does the record list as hERG current change (%, negative = inhibition) at 10uM for "CN(CC(=O)Nc1ccccc1Cl)C(=O)COC(=O)Cc1ccc(F)cc1" ?
1.33

Given "Cc1ccc(C(=O)NCCNc2ccc(Cl)cc2[N+](=O)[O-])o1" , state its recorded hERG current change (%, negative = inhibition) at 10uM.
-60

Could you tell me which hERG current change (%, negative = inhibition) at 10uM is on file for Cc1cccc(NC(=O)CCN2C(=O)C3C4C=CC(C4)C3C2=O)n1 (stereo not shown) ?
5.71

Would you mind telling me what hERG current change (%, negative = inhibition) at 10uM value was observed for "O=C(c1ccc(F)cc1)C1CCN(C(=S)Nc2ccc(F)cc2)CC1" ?
-57.2

====

Reported hERG current change (%, negative = inhibition) at 10uM is given for each of the following compounds.
target: human ether-à-go-go-related gene (hERG) potassium channel (human); assay: primary screen, population patch clamp on CHO cells stably expressing hERG; higher = less effect of the substance;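 note: peak tail current of the secondary pulse compared with the same well before compound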
The campaign covered roughly 310,000 compounds. About 14,000 (4.5%) showed an effect of 50% or more. The effect is printed as a negative number. This is one part of a sample in which strong results are shown more often than they occur.
Respond with the bare value in %.

Consider the following illustrative entries.
Compound	Study system	Numeric readout
CCN1CCN(CCCNC(=O)C2CCN(c3nnc(-n4cccc4)s3)CC2)CC1	human ether-à-go-go-related gene (hERG) potassium channel (human)	-3.56
CCC(C)[C@H](NC(=O)N1CC(=O)Nc2ccccc21)C(=O)N[C@H](C(=O)O)c1ccccc1 (some centres unmarked)	human ether-à-go-go-related gene (hERG) potassium channel (human)	7.19

I'd like to know its hERG current change (%, negative = inhibition) at 10uM. The compound in question is "O=C(NCC(=O)N1CCN(C(=O)c2ccco2)CC1)c1ccc(Br)cc1"
-53.9

Requested read-out: hERG current change (%, negative = inhibition) at 10uM. Entry: "CCCNC(=O)N1c2ccccc2Sc2ccccc21"
10.5

Can you share its hERG current change (%, negative = inhibition) at 10uM? I mean this compound: "C/C(=N\N=c1/sc2ccccc2n1C)c1ccc(N2CCOCC2)cc1"
18.9

I have this compound here, CCC1CCCCN1CCCNC(=O)C1CCN(c2nnc(-n3cccc3)s2)CC1 (centres unmarked) , and I need its recorded hERG current change (%, negative = inhibition) at 10uM.
-18.7

Report hERG current change (%, negative = inhibition) at 10uM for "O=C(NCC(=O)N1CCN(C(=O)c2ccco2)CC1)c1ccc(Cl)cc1" please.
-34.1

====

target: human ether-à-go-go-related gene (hERG) potassium channel (human); assay: primary screen, population patch clamp on CHO cells stably expressing hERG; higher = less effect of the substance;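 note: peak tail current of the secondary pulse compared with the same well before compound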
Hit rate of the full screen: of about 310,000 compounds, about 14,000 (4.5%) showed an effect of 50% or more. Effects have a minus sign here. The sample holds strong results, similar compounds and a random draw of the others, so the mix is not that of the screen.
Listed here: items and their measured hERG current change (%, negative = inhibition) at 10uM.
I'd appreciate it if you wrote the number followed by its unit.

Compound	Result
O=S(=O)(c1ccc(Br)cc1)N1CCn2c(nc3ccccc32)C1	-7.4%
Cc1cccc(-c2nc(CSCC(=O)N3CCN(c4ccccn4)CC3)c(C)o2)c1	-41.2%
CN(C)S(=O)(=O)c1cccc(NC(=O)c2cccc(S(=O)(=O)N3CCc4ccccc43)c2)c1	-4.62%
Cc1ccccc1-n1cnnc1SCC(=O)N1CCN(c2ccccc2)CC1	-57.7%
COc1ccccc1/C=C/CN1CCSCC1	-3.74%
Cn1c(CNC(=O)c2ccccc2F)nnc1SCC(=O)N1CCN(c2ccccc2)CC1	-8.2%
O=C(NCc1ccccc1)c1cc2ccccc2o1	-4.68%
CCOC(=O)C1=C(COC(=O)c2cccc(N(C)C)c2)NC(=O)NC1C (centres unmarked)	2.49%
O=C(NCC(c1ccco1)N1CCCC1)c1cc2cc(Cl)ccc2o1 (centres unmarked)	-67.7%
O=C(NCc1ccccc1CN1CCCCC1)c1ccc(Cl)cc1N1CCCC1=O	-30.4%

Requested field: hERG current change (%, negative = inhibition) at 10uM. Item: "Cc1oc(-c2cc(F)ccc2F)nc1CN1CCC(C(=O)N2CCOCC2)CC1"
-42.8%

Need hERG current change (%, negative = inhibition) at 10uM, item Cc1cc(C)c(OC2(c3ccccc3)OC(=O)c3ccccc32)c(C)c1 (centres unmarked)
-5.57%

What value of hERG current change (%, negative = inhibition) at 10uM has been reported for the following compound? "COc1ccccc1/C=C/CN1CCOCC1"
-3.9%

Can you share its hERG current change (%, negative = inhibition) at 10uM? I mean this compound: "Cc1cccc(N2CCN(Cc3nc(-c4cccc(Oc5ccccc5)c4)oc3C)CC2)n1"
4.13%

Entry under review: Cc1c(C(=O)NCC(c2ccco2)N2CCCC2)oc2ccc(Cl)cc12 (centres unmarked) . Reported hERG current change (%, negative = inhibition) at 10uM?
-42.1%

Tell me the measured hERG current change (%, negative = inhibition) at 10uM of COc1ccc(F)c(CN2CCCC(CO)(Cc3cccc(Cl)c3)C2)c1 (centres unmarked) , please.
-30.6%

I'd like to know its hERG current change (%, negative = inhibition) at 10uM. The compound in question is "Cn1c(CNC(=O)c2ccccc2)nnc1SCC(=O)N1CCN(c2ccccc2)CC1"
1.77%

Sample "CCN1CCN(C(=O)C2CCN(Cc3nc(-c4cccc(Cl)c4)oc3C)CC2)CC1" — what was its hERG current change (%, negative = inhibition) at 10uM?
-42.9%

Please look up its hERG current change (%, negative = inhibition) at 10uM: COc1ccc(CNC(=O)C2CC(=O)N(C3CCCC3)C2)cc1 (centres unmarked)
-8.14%

Given CC(Sc1ccc(Cl)cc1)C(=O)NCC(c1ccco1)N1CCCCC1 (centres unmarked) , state its recorded hERG current change (%, negative = inhibition) at 10uM.
-54.1%

Give the measured hERG current change (%, negative = inhibition) at 10uM of "O=C1Oc2ccccc2C(=O)/C1=C/N1CCN(c2ccccc2F)CC1" .
-0.353%

Please report the recorded hERG current change (%, negative = inhibition) at 10uM for "Cc1ccc(CSCc2nnc(SCC(=O)N3CCN(c4ccccc4)CC3)n2C)cc1" .
-54%
